- System under test: T1, Human CXCR2 (human, UniProt P25025 1-360)
- T1 sequence: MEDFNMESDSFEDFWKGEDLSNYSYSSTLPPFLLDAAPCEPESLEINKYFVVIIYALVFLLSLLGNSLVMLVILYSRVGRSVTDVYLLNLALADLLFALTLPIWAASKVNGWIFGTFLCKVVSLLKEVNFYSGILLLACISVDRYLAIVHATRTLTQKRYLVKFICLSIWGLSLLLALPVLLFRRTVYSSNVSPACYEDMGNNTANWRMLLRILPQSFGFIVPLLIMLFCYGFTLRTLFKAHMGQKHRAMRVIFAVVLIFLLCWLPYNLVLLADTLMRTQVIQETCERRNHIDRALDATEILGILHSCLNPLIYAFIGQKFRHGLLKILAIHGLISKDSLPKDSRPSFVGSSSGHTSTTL
- Assay remarks: cell-based or functional assay
Quick reference: FLIPR IC50, GRO-α induced intracellular calcium release of the listed items.
Give the figure together with its unit, number first.

As a guide, the following entries are already answered.
[
  {
    "Binder": "CXCR20015 (other, not shown: small tags and cut ends) EVQLVESGGELVQPGGSLRLSCAASGSILTINAMGWYRQAPGKQRELVVRRTRGGSTTYQDSVKGRFTISADIAKKTMYLQMNSLKPEDTAVYYCMLDDRGGVYWGQGTQVTVSSGGGGSGGGGSGGGGSGGGGSGGGGSGGGGSGGGGSEVQLVESGGGLVQPGGSVRLSCVASGIIFRLSALGWTRQGPGKAREWVAGINSDGTTNYADPVKGRFTISRDNAKNTIYLHMDMLKPEDTAVYYCASGKYRGQGTQVTVSS",
    "Result": "2.78 nM"
  },
  {
    "Binder": "CXCR20033 (bispecific antibody, not shown: small tags and cut ends) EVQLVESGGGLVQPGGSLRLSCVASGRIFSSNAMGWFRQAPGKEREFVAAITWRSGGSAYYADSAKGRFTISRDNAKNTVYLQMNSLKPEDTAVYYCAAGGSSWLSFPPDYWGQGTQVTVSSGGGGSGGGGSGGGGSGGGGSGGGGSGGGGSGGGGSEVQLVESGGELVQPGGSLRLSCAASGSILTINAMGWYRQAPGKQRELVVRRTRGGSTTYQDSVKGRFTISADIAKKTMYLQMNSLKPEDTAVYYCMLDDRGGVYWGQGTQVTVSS",
    "Result": "17.9 nM"
  },
  {
    "Binder": "CXCR20011 (VHH, not shown: small tags and cut ends) EVQLVESGGGLVQPGGSLRLSCVASGSIVRINTMGWYRQTPGKQRELVADITSGGNINYIDAVKGRFTISRDNTKNTVYLQMNSLKPEDTAVYYCNAEIVVLVGVWTQRARTGNYWGQGTQVTVSSGGGGSGGGGSGGGGSGGGGSGGGGSGGGGSGGGGSEVQLVESGGGLVQPGGSLRLSCVASGSIVRINTMGWYRQTPGKQRELVADITSGGNINYIDAVKGRFTISRDNTKNTVYLQMNSLKPEDTAVYYCNAEIVVLVGVWTQRARTGNYWGQGTQVTVSS",
    "Result": "137 nM"
  },
  {
    "Binder": "CXCR20035 (other, not shown: small tags and cut ends) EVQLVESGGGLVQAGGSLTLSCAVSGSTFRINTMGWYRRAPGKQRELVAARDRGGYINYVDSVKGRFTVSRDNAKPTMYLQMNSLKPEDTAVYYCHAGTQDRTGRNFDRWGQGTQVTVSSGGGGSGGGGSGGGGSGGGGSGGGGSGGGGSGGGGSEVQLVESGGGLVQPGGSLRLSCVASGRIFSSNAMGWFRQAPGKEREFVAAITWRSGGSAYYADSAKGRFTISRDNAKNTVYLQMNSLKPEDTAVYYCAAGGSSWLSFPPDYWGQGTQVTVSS",
    "Result": "10.2 nM"
  }
]

-- ask What value of measured FLIPR IC50, GRO-α induced intracellular calcium release is listed for CXCR20020 (bispecific antibody, not shown: small tags and cut ends) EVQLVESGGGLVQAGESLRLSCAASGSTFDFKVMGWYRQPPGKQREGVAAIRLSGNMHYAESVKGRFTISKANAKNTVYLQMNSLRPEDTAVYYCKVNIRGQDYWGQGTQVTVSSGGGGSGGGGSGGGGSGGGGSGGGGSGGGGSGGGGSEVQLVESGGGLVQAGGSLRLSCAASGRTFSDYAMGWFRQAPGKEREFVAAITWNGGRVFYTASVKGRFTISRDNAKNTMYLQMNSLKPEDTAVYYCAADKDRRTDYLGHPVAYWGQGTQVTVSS ?
-- reply 6.98 nM
